system: Rattus norvegicus; test: Percent inhibition of AII (0.1 ug/kg iv) -induced pressor response at 7 hr after administration of test compounds (0.1 mg/kg po) in conscious male Sprague-Dawley rats.; format: functional; conditions: in the assay text read “3 hr” for “7 hr”
Recorded measurements of Inhibition, one per entry
Experimental readout: Inhibition (%)

1. CCOc1nc2cccc(C(=O)O)c2n1Cc1ccc(-c2ccccc2-c2nsc(O)n2)cc1 :: 100
2. CCCCc1nc2cccc(C(=O)O)c2n1Cc1ccc(-c2ccccc2-c2noc(S)n2)cc1 :: 19
3. CCCCc1nc2cccc(C(=O)OC)c2n1Cc1ccc(-c2ccccc2-c2nsc(O)n2)cc1 :: 10
4. CCCCc1nc2cccc(C(=O)O)c2n1Cc1ccc(-c2ccccc2-c2nsc(O)n2)cc1 :: 19

###

biological target: Angiotensin II receptor (Rattus norvegicus) (UniProt P29089+P25095+P35351); test: Percent inhibition of angiotensin II (0.1 ug/kg iv) -induced pressor response 7 hr after administration of test compounds (1 mg/kg po) in conscious male Sprague-Dawley rats; type: functional, organism-based
Experimental readout: inhibition (%)

1) CNc1nc2cccc(C(=O)O)c2n1Cc1ccc(-c2ccccc2-c2nsc(O)n2)cc1 :: 29
2) COc1nc2cccc(C(=O)O)c2n1Cc1ccc(-c2ccccc2-c2nsc(O)n2)cc1 :: 91
3) CCCc1nc2cccc(C(=O)O)c2n1Cc1ccc(-c2ccccc2-c2noc(S)n2)cc1 :: 94
4) CCCCc1nc2cccc(C(=O)O)c2n1Cc1ccc(-c2ccccc2-c2noc(O)n2)cc1 :: 64
5) CCc1nc2cccc(C(=O)O)c2n1Cc1ccc(-c2ccccc2-c2noc(S)n2)cc1 :: 89
6) CCc1nc2cccc(C(=O)O)c2n1Cc1ccc(-c2ccccc2-c2nsc(O)n2)cc1 :: 100
7) Cc1nc2cccc(C(=O)O)c2n1Cc1ccc(-c2ccccc2-c2nsc(O)n2)cc1 :: 71
8) CCNc1nc2cccc(C(=O)O)c2n1Cc1ccc(-c2ccccc2-c2nsc(O)n2)cc1 :: 71
9) CCCc1nc2cccc(C(=O)O)c2n1Cc1ccc(-c2ccccc2-c2nsc(O)n2)cc1 :: 100
10) CCSc1nc2cccc(C(=O)O)c2n1Cc1ccc(-c2ccccc2-c2nsc(O)n2)cc1 :: 100
11) CSc1nc2cccc(C(=O)O)c2n1Cc1ccc(-c2ccccc2-c2noc(S)n2)cc1 :: 91
12) Cc1nc2cccc(C(=O)O)c2n1Cc1ccc(-c2ccccc2-c2noc(S)n2)cc1 :: 50
13) CCOc1nc2cccc(C(=O)OC)c2n1Cc1ccc(-c2ccccc2-c2noc(S)n2)cc1 :: 93
14) CCCSc1nc2cccc(C(=O)O)c2n1Cc1ccc(-c2ccccc2-c2nsc(O)n2)cc1 :: 100
15) CSc1nc2cccc(C(=O)O)c2n1Cc1ccc(-c2ccccc2-c2nsc(O)n2)cc1 :: 100
16) CCOc1nc2cccc(C(=O)OC)c2n1Cc1ccc(-c2ccccc2-c2noc(O)n2)cc1 :: 100
17) CCCOc1nc2cccc(C(=O)O)c2n1Cc1ccc(-c2ccccc2-c2nsc(O)n2)cc1 :: 100
18) CCCSc1nc2cccc(C(=O)O)c2n1Cc1ccc(-c2ccccc2-c2noc(S)n2)cc1 :: 100
19) CCSc1nc2cccc(C(=O)O)c2n1Cc1ccc(-c2ccccc2-c2noc(S)n2)cc1 :: 100
20) CCOc1nc2cccc(C(=O)OC)c2n1Cc1ccc(-c2ccccc2-c2nsc(O)n2)cc1 :: 100
